Experiment: solvent given as SMILES
Settings: in c1ccccc1
I'd be grateful if you could share measured emission maximum for these entries.
Please respond with the number in nm and leave the unit unwritten.

Record request: emission maximum value, item CCOC(=O)CSc1nc2c(c(C#N)c1C#N)CCCC2 407

How about O=c1oc2c(ccc3cc(O)ccc32)nc1-c1ccccc1 ? 487

How about CCCCCCCCC1(CCCCCCCC)c2cc(-c3ccc(C(F)(F)F)cc3)ccc2-c2ccc(N(c3ccc(-n4c5ccccc5c5ccccc54)cc3)c3ccc4c(c3)C(CCCCCCCC)(CCCCCCCC)c3cc(-c5ccc(C(F)(F)F)cc5)ccc3-4)cc21 ? 428

How about O=C1/C(=C2\Sc3ccccc3C2=O)Sc2ccccc21 ? 598

How about CCOC(=O)CSc1nc(-c2ccc(OC)cc2)c(C)c(C#N)c1C#N ? 432

How about CN(C)c1ccc2nc(-c3ccc(C(=O)OC[C@H](NC(=O)OC(C)(C)C)C(=O)OCc4ccccc4)cc3)sc2c1 ? 484

How about CCC1=C(C)C(=O)n2c1cc1c(C)c(CC(=O)O)c(C)n1c2=O ? 465

How about CN(C)c1ccc2c(c1)-c1ccccc1C2=O ? 526

How about CC1(C)CC(/C=C/c2ccc(N3CCOCCOCCOCCOCC3)cc2)=CC(=C(C#N)C#N)C1 ? 596

How about Oc1ccccc1/N=C/c1ccccc1Oc1ccccc1 ? 410

How about CC(C)(C)c1cc2ccc3cc(C(C)(C)C)cc4c3c2c(c1)c(=O)n1c4nc2c3cc(C(C)(C)C)cc4ccc5cc(C(C)(C)C)cc(c5c43)c21 ? 524

How about CCC1=C(C)C(=O)n2c1cc1c(c(C)c(C(=O)OCC(C)C)n1CC(C)C)c2=O ? 446

How about O=C(O)COc1ccc2[nH]c3c(c2c1)CCCC3=O ? 399.81

How about CCCCN(CCCC)c1ccc(C#Cc2cc(C#Cc3ccc(C#N)cc3)c(C#Cc3ccc(N(CCCC)CCCC)cc3)cc2C#Cc2ccc(C#N)cc2)cc1 ? 530

How about CCCCn1c2ccc(/C=C(\C#N)c3ccc([N+](=O)[O-])cc3)cc2c2cc(Cn3c(-c4ccc5c(c4)c4ccccc4n5CCCC)nc4ccccc43)ccc21 ? 505

How about CCCCN(CCCC)c1ccc(C#Cc2cc(C#Cc3cc(C(F)(F)F)cc(C(F)(F)F)c3)c(C#Cc3cc(C(F)(F)F)cc(C(F)(F)F)c3)cc2C#Cc2ccc(N(CCCC)CCCC)cc2)cc1 ? 506

How about CCC1(CC)c2cc(N(C)C)ccc2-c2ccc(C(F)(F)F)cc21 ? 374

----------
I'd be grateful if you could share measured emission maximum for these entries.
Assay: solvent given as SMILES
Details: in CCCCCC
Be sure to follow the number with its unit.

Record request: emission maximum value, item Cc1ccc(NC(=O)c2sc(Br)nc2C)cc1 399 nm

How about c1ccc(-c2cc(-c3ccc4ccc5c(-c6ccnc(-c7ccccn7)c6)ccc6ccc3c4c65)ccn2)nc1 ? 397.99 nm

How about F[B-]1(F)n2c(c3cccc4cccc2c43)=Nc2cccc(Cl)[n+]21 ? 498 nm

----------
I'd be grateful if you could share measured emission maximum for these entries.
Assay: solvent given as SMILES
Details: in CO
Please respond with the number in nm and leave the unit unwritten.

Record request: emission maximum value, item Cc1cc(C(F)(F)F)nc2c1ccc1nc(-c3ccc(Cl)cc3)cn12 459

How about CN(C)CCCN1c2ccccc2CCc2ccc(Cl)cc21 ? 353

How about BrC1=CN2C[n+]3cc(Br)c4ccccc4c3N=C2c2ccccc21 ? 502

How about CC1(C)C(/C=C/C2=C(Cl)C(=C/C=C3/N(Cc4ccc(F)cc4)c4ccccc4C3(C)C)/CCC2)=[N+](Cc2ccc(F)cc2)c2ccccc21 ? 809

How about CCCCCCCCCCN1C(=O)c2cc(NCCCOCCO)c3c4c(cc(NCCCOCCO)c(c24)C1=O)C(=O)N(CCCCCCCCCC)C3=O ? 642

How about CN(C)c1ccc(/C=C2\CC/C(=C\c3ccc(N(C)C)cc3)C2=O)cc1 ? 635

How about O=P1(c2ccccc2)C(c2cc(C(F)(F)F)cc(C(F)(F)F)c2)=Cc2c3ccc4cccc5ccc(c6cc(-c7ccccc7)n1c26)c3c45 (stereo not drawn) ? 524

How about Cc1ccc(C2=C3C=CC(Nc4ccccc4)=[N+]3[B-](F)(F)n3c(Nc4ccccc4)ccc32)cc1 ? 613

----------
I'd be grateful if you could share measured emission maximum for these entries.
Experiment: solvent given as SMILES
Settings: in C1CCOC1
Be sure to follow the number with its unit.

Record request: emission maximum value, item CN(C)c1ccc(C(=O)Nc2cccc(Cl)c2)cc1 455 nm

How about CN(c1ccccc1)c1ccc(/C=C2\C(=O)c3ccccc3S2(=O)=O)cc1 ? 532 nm

How about COc1ccc(-c2cc3oc(=O)cc(C)c3cc2-c2ccc(OC)c(OC)c2)cc1OC ? 457 nm

How about N#Cc1c(N2CCCCC2)cc(-c2ccccc2)c2c1Cc1ccccc1-2 ? 449 nm

How about Oc1ccccc1/N=C/c1ccccc1Oc1ccccc1 ? 412 nm

How about c1ccc(-c2nc(-c3ccccc3)nc(-c3ccccc3-n3c4ccccc4c4c5oc6ccccc6c5ccc43)n2)cc1 ? 492.26 nm

How about CCOC(=O)C1=C(C)NC2=C(C(=O)c3ccccc32)C1c1ccc(N(C)C)cc1 (centres undefined) ? 497 nm

How about CC1(C)c2ccccc2-c2ccc(N(c3ccccc3)c3ccc4c(c3)C(C)(C)c3cc(-c5cc6ccccc6c6c5oc5ccccc56)ccc3-4)cc21 ? 469 nm

How about CC(C)(C)c1ccc(-c2nc(-c3ccc(C(C)(C)C)cc3)nc(-c3cc(C#N)c(-n4c5ccccc5c5c6oc7ccccc7c6ccc54)c(C#N)c3)n2)cc1 ? 504.66 nm

----------
I'd be grateful if you could share measured emission maximum for these entries.
Test: solvent given as SMILES
Settings: in ClC(Cl)Cl

Record request: emission maximum value, item CC(C)n1c(=O)c2cc3ccc4cccc5ccc(c2c1=O)c3c45 457 nm

How about c1ccc(-c2nc3ccccc3nc2-c2ccccc2)cc1 ? 398 nm

How about CCCCCCCCCCCCOc1cc2c3c(ccc4c5c(OCCCCCCCCCCCC)cc6c7c(ccc(c1c34)c75)C(=O)N(C1CCCCC1)C6=O)C(=O)N(C1CCCCC1)C2=O ? 597 nm

How about CCN1/C(=C\C2=C([O-])C(=C/C3=[N+](CC)c4ccccc4C3(C)C)/C2=O)C(C)(C)c2ccccc21 ? 643 nm

----------
Experiment: solvent given as SMILES
Conditions: in O
I'd be grateful if you could share measured emission maximum for these entries.
Please respond with the number in nm and leave the unit unwritten.

Record request: emission maximum value, item CC[N+]1(CC)CN2C(C)=CC(C)=C(C(=O)O)C2=N1 449

How about O=c1[nH]c(=O)n([C@@H]2O[C@H](CO)[C@@H](O)[C@H]2O)c2ccsc12 ? 351

How about COc1ccc(C2=C3C=CC(=[N+](C)C)C=C3[Si](C)(C)c3cc(N(C)C)ccc32)c(OC)c1 ? 663

How about CC(=O)OCCOCCN1C(=O)c2cc(NCCOCCO)c3c4c(cc(NCCOCCO)c(c24)C1=O)C(=O)N(CCOCCOC(C)=O)C3=O ? 657

How about N#CC(C#N)=Cc1ccc(-c2ccc(-c3nc4ccccc4s3)c(O)c2)o1 ? 596

How about Cc1ccc2oc(-c3cc4cc(C)ccc4oc3=O)cc2c1 ? 498

How about CC/[NH+]=c1\cc2oc3cc(NCCOC(=O)C(NC(=O)OC(C)(C)C)C(C)C)c4ccccc4c3nc-2cc1C (centres undefined) ? 652

How about Cc1nn(-c2ccccc2)c(C2=NN(c3ccc(Br)cc3)[C@@H](c3ccccc3)[C@@H]2c2ccccc2)c1C#N ? 485

How about CN(C)CCCN1c2ccccc2Sc2ccccc21 ? 452

----------
Experiment: solvent given as SMILES
Details: in C1CCOC1
measured.attribute: emission maximum (nm)
Please respond with the number in nm and leave the unit unwritten.

Record request: emission maximum value, item N#Cc1ccc(/C=C/C(F)(F)F)c(N)c1 439

How about Cc1csc2[n+]1[B-](F)(F)n1c(c3cccc4cccc1c43)=N2 ? 500

How about F[B-]1(F)n2c(-c3ccccc3)cc(-c3ccccc3)c2C=C2C(c3ccccc3)=CC(c3ccccc3)=[N+]21 ? 601

How about N#C/C=C/c1ccc2ccc3cccc4ccc1c2c34 ? 425

How about O=P1(c2ccccc2)C(c2ccc(C(F)(F)F)cc2)=Cc2ccccc21 (stereo not given) ? 414

----------
Assay: solvent given as SMILES
Conditions: in CC(C)=O
measured.attribute: emission maximum (nm)
Please respond with the number in nm and leave the unit unwritten.

Record request: emission maximum value, item Nc1ccc2c(C(F)(F)F)cc(=O)oc2c1 466

How about CC(C)(C)c1ccc2c(c1)c1cc(C(C)(C)C)ccc1n2-c1ccccc1-c1nc(-c2ccccc2P(=O)(c2ccccc2)c2ccccc2)nc(-c2ccccc2P(=O)(c2ccccc2)c2ccccc2)n1 ? 532.75

How about CN(C)c1cccc2c1ccc1c(=O)oc(-c3ccc(C(F)(F)F)cc3)cc12 ? 611

How about COc1ccc(-c2nc(N)nc(C#N)c2C#N)cc1OC ? 430

How about COc1ccc(OC)c(C=O)c1 ? 410

How about CCC1=C(C)C2=C(C)c3cc(I)cn3[B-](F)(F)[N+]2=C1C ? 532.5

How about Nc1ccc2c(c1)C(=O)O/C2=C\c1ccc(Cl)cc1 ? 448.83

How about COc1ccc(/N=N/c2c(O)c3ccccc3n(C)c2=O)c(S(=O)(=O)O)c1 ? 528

How about CC(=O)O[B-]1(OC(C)=O)OC(/C=C/C=C/c2ccccc2)=CC(/C=C/C=C/c2ccccc2)=[O+]1 ? 544

How about CSc1cc(-c2cc3cc4c5c(c3oc2=O)CCCN5CCC4)oc(=O)c1C#N ? 596

How about Nc1ccc2c(c1)C(=O)NC2=O ? 457

How about CN(C)c1ccc(/C=C/c2ccc(-c3nnc(-c4ccc(-c5cc6ccccc6s5)cc4)o3)cc2)cc1 ? 395

How about CCOC(=O)/C(C#N)=C\c1ccc2c(c1)c1ccccc1n2-c1ccc(OC)cc1 ? 508

How about CCN(CC)c1ccc2cc(/C=C/C(=C(C#N)C#N)c3ccc(N(c4ccccc4)c4ccccc4)cc3)c(=O)oc2c1 ? 621

How about CCn1c2ccccc2c2cc(/C=C/C(=O)c3ccc4c(c3)c3cc(C(=O)/C=C/c5ccc6c(c5)c5ccccc5n6CC)ccc3n4CC)ccc21 ? 476

How about CN(C)c1ccc2cc(C3=[O+][B-](F)(F)OC(c4ccccc4)=C3)ccc2c1 ? 682

How about c1ccc2c(c1)c1ccccc1n2-c1ccc2c(c1)c1ccccc1n2-c1ccc(-n2c3ccccc3c3cc(-n4c5ccccc5c5ccccc54)ccc32)cc1 ? 379

How about CCCCCCCCC1(CCCCCCCC)c2cc(-c3ccc(C(F)(F)F)cc3)ccc2-c2ccc(N(c3ccc(-n4c5ccccc5c5ccccc54)cc3)c3ccc4c(c3)C(CCCCCCCC)(CCCCCCCC)c3cc(-c5ccc(C(F)(F)F)cc5)ccc3-4)cc21 ? 477

How about CCC1=C(C)C2=Cc3c(I)c(I)c(I)n3[B-](F)(F)[N+]2=C1C ? 553
